Consider the following substances; for each one, report its Calculated binding (EC50) in A431 cells.
Molecular target: EGFR (Homo sapiens, UniProt P00533)
Construct: host or cells: A431 human epidermoid carcinoma cells, whole-cell suspension
Assay: Phage ELISA whole-cell binding, A431 cells
Conditions: phage fusion; Table 15, second half loop

Value of measured Calculated binding (EC50) in A431 cells for the entry WVS: EGF variant, amino acids 2 and 3 replaced with W and V, N-terminus NWVSE; SEQ ID NO 3 (NWVSECPLSHDGYCLHDGVCMYIEALDKYACNCVVGYIGERCQYRDLKWWELR; Ligand Variant) [reference compound] : 1.4 × 10^9 phage titer/mL

Value of measured Calculated binding (EC50) in A431 cells for the entry D4: WVS background, B-loop MYIEAYRVKT (second half YRVKT); SEQ ID 42 (Ligand Variant) : 3.9 × 10^9 phage titer/mL

Value of measured Calculated binding (EC50) in A431 cells for the entry wvs-R41DL47G: WVS background, R at position 41 replaced by D, L at position 47 replaced by G; SEQ ID NO 5 (NWVSECPLSHDGYCLHDGVCMYIEALDKYACNCVVGYIGEDCQYRDGKWWELR; Ligand Variant) : 4.0 × 10^10 phage titer/mL

Value of measured Calculated binding (EC50) in A431 cells for the entry E8: WVS background, B-loop MYIEATKYRG (second half TKYRG); SEQ ID 44 (Ligand Variant) : 5.2 × 10^9 phage titer/mL

----------
Consider the following substances; for each one, report its Calculated binding (EC50).
Molecular target: EGFR (Homo sapiens)
Construct: host or cells: A431 human epidermoid carcinoma cells, whole-cell suspension
Test: Phage ELISA whole-cell binding, A431 cells
Details: A431 whole cell suspension, phage-displayed ligand, Abs450; Table 10

Value of measured Calculated binding (EC50) for the entry wvs-R41D: WVS background, R at position 41 replaced by D; SEQ ID NO 6 (NWVSECPLSHDGYCLHDGVCMYIEALDKYACNCVVGYIGEDCQYRDLKWWELR; Ligand Variant) : 5.8 × 10^11 phage titer/mL

Value of measured Calculated binding (EC50) for the entry wvs-R41DL47G: WVS background, R at position 41 replaced by D, L at position 47 replaced by G; SEQ ID NO 5 (NWVSECPLSHDGYCLHDGVCMYIEALDKYACNCVVGYIGEDCQYRDGKWWELR; Ligand Variant) : 4.8 × 10^12 phage titer/mL

Value of measured Calculated binding (EC50) for the entry WVS: EGF variant, amino acids 2 and 3 replaced with W and V, N-terminus NWVSE; SEQ ID NO 3 (NWVSECPLSHDGYCLHDGVCMYIEALDKYACNCVVGYIGERCQYRDLKWWELR; Ligand Variant) [reference compound] : 6.6 × 10^8 phage titer/mL

Value of measured Calculated binding (EC50) for the entry wvs-L47G: WVS background, L at position 47 replaced by G; SEQ ID NO 7 (NWVSECPLSHDGYCLHDGVCMYIEALDKYACNCVVGYIGERCQYRDGKWWELR; Ligand Variant) : 6.6 × 10^10 phage titer/mL
